# Tested System: human FXR (NR1H4) (Homo sapiens (Human))
# Sequence (Q96RI1 whole entry): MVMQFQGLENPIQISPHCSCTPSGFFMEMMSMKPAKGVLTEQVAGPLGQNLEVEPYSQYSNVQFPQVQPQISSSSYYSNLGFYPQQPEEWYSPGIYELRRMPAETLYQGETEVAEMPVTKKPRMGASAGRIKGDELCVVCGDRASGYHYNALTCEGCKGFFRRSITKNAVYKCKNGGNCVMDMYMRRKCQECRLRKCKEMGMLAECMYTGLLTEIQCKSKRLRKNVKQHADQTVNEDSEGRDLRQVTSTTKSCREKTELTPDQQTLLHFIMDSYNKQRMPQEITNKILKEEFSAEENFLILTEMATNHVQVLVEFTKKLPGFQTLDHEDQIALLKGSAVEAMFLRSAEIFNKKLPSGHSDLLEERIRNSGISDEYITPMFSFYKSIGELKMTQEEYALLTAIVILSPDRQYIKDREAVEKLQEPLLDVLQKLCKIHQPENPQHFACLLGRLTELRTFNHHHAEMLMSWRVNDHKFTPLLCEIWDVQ
# Run Description: Human FXR (NR1H4) Assay (luciferase reporter, Indigo Bioscience kit)
# Run Parameters: FXR agonistic potency range; CHO reporter cells expressing human NR1H4, 22 hours incubation
// EC50 lookup, one value per entry

Known results for compounds:
Given the compound CC[C@H]1[C@@H](O)[C@@H]2[C@H](CC[C@]3(C)[C@@H]([C@H](C)CC=Cc4cc(F)c(O)c(F)c4)CC[C@@H]23)[C@@]2(C)CC[C@@H](O)C[C@@H]12 [Example 4] and test system human FXR (NR1H4) (Homo sapiens (Human)), the measured EC50 is 0.1 to 1 µM

Given the compound CC[C@H]1[C@@H](O)[C@@H]2[C@H](CC[C@]3(C)[C@@H]([C@H](C)C/C=C/c4ccccc4C#N)CC[C@@H]23)[C@@]2(C)CC[C@@H](O)C[C@@H]12 [Example 29] and test system human FXR (NR1H4) (Homo sapiens (Human)), the measured EC50 is 1 to 10 µM

Given the compound CC[C@H]1[C@@H](O)[C@@H]2[C@H](CC[C@]3(C)[C@@H]([C@H](C)C/C=C/c4ccc(C(C)C(=O)O)cc4)CC[C@@H]23)[C@@]2(C)CC[C@@H](O)C[C@@H]12 (stereo partly shown) [Example 16] and test system human FXR (NR1H4) (Homo sapiens (Human)), the measured EC50 is 1 to 10 µM

Given the compound CC[C@H]1[C@@H](O)[C@@H]2[C@H](CC[C@]3(C)[C@@H]([C@H](C)C/C=C/c4cnccc4C(=O)OC)CC[C@@H]23)[C@@]2(C)CC[C@@H](O)C[C@@H]12 [Example 27] and test system human FXR (NR1H4) (Homo sapiens (Human)), the measured EC50 is 1 to 10 µM

Given the compound CC[C@H]1[C@@H](O)[C@@H]2[C@H](CC[C@]3(C)[C@@H]([C@H](C)C/C=C/c4ccccc4C(=O)O)CC[C@@H]23)[C@@]2(C)CC[C@@H](O)C[C@@H]12 [Example 2] and test system human FXR (NR1H4) (Homo sapiens (Human)), the measured EC50 is < 0.1 µM

Given the compound CC[C@H]1[C@@H](O)[C@@H]2[C@H](CC[C@]3(C)[C@@H]([C@H](C)CC4CC4c4ccccc4C(=O)O)CC[C@@H]23)[C@@]2(C)CC[C@@H](O)C[C@@H]12 (stereo partly shown) [Example 10] and test system human FXR (NR1H4) (Homo sapiens (Human)), the measured EC50 is 0.1 to 1 µM

More entries:
Given the compound CC[C@H]1[C@@H](O)[C@@H]2[C@H](CC[C@]3(C)[C@@H]([C@H](C)C/C=C/c4ccc(-c5nnn[nH]5)cc4)CC[C@@H]23)[C@@]2(C)CC[C@@H](O)C[C@@H]12 [Example 24] and test system human FXR (NR1H4) (Homo sapiens (Human)), the measured EC50 is 1 to 10 µM

Given the compound CC[C@H]1[C@@H](O)[C@@H]2[C@H](CC[C@]3(C)[C@@H]([C@H](C)CCOc4ccc(F)cc4C(=O)O)CC[C@@H]23)[C@@]2(C)CC[C@@H](O)C[C@@H]12 [Example 35] and test system human FXR (NR1H4) (Homo sapiens (Human)), the measured EC50 is 0.1 to 1 µM

Given the compound CC[C@H]1[C@@H](O)[C@@H]2[C@H](CC[C@]3(C)[C@@H]([C@H](C)CC4CC4c4cccc(C(=O)O)c4)CC[C@@H]23)[C@@]2(C)CC[C@@H](O)C[C@@H]12 (stereo partly shown) [Example 33] and test system human FXR (NR1H4) (Homo sapiens (Human)), the measured EC50 is 1 to 10 µM

Given the compound CC[C@H]1[C@@H](O)[C@@H]2[C@H](CC[C@]3(C)[C@@H]([C@H](C)Cc4nc5cccc(C(=O)OC)c5[nH]4)CC[C@@H]23)[C@@]2(C)CC[C@@H](O)C[C@@H]12 [Example 31] and test system human FXR (NR1H4) (Homo sapiens (Human)), the measured EC50 is 1 to 10 µM

Given the compound CC[C@H]1[C@@H](O)[C@@H]2[C@H](CC[C@]3(C)[C@@H]([C@H](C)C/C=C/c4ccc(C(C)C(=O)OC)cc4)CC[C@@H]23)[C@@]2(C)CC[C@@H](O)C[C@@H]12 (stereo partly shown) [Example 15] and test system human FXR (NR1H4) (Homo sapiens (Human)), the measured EC50 is 1 to 10 µM

Given the compound CC[C@H]1[C@@H](O)[C@@H]2[C@H](CC[C@]3(C)[C@@H]([C@H](C)C/C=C/c4cccc(C(=O)OC)c4)CC[C@@H]23)[C@@]2(C)CC[C@@H](O)C[C@@H]12 [Example 21] and test system human FXR (NR1H4) (Homo sapiens (Human)), the measured EC50 is 1 to 10 µM
